# Protocol Text: activity coefficient (dimensionless); of the first substance listed, at infinite dilution; xn = mol fraction of the nth substance listed
# Study Conditions: 328.15 K; 101.33 kPa; Liquid; Chromatography; x1 = 0
Would you mind sorting the entries by activity coefficient according to these classes? low: < 5; moderate: ≥ 5 and < 100; high: ≥ 100

Compound | Assigned Label
C=CCCCCC [1-heptene] + CC[N+]1(C)CCOCC1.N#CN=C=[N-] | high

[ask] Which class does C#CCCCC [1-hexyne] + CC[N+]1(C)CCOCC1.N#CN=C=[N-] fall in?
[reply] moderate

[ask] Which class does CCCC(=O)OC [methyl butanoate] + CC[N+]1(C)CCOCC1.N#CN=C=[N-] fall in?
[reply] moderate

[ask] Which class does COC(C)=O [methyl ethanoate] + CC[N+]1(C)CCOCC1.N#CN=C=[N-] fall in?
[reply] low

[ask] Which class does C1CCCCC1 [cyclohexane] + CC[N+]1(C)CCOCC1.N#CN=C=[N-] fall in?
[reply] high

[ask] Which class does CC#N [acetonitrile] + CC[N+]1(C)CCOCC1.N#CN=C=[N-] fall in?
[reply] low

[ask] Which class does CCCOCCC [dipropyl ether] + CC[N+]1(C)CCOCC1.N#CN=C=[N-] fall in?
[reply] high

[ask] Which class does CCCCCO [pentan-1-ol] + CC[N+]1(C)CCOCC1.N#CN=C=[N-] fall in?
[reply] low

[ask] Which class does Cc1ccc(C)cc1 [1,4-dimethylbenzene] + CC[N+]1(C)CCOCC1.N#CN=C=[N-] fall in?
[reply] moderate
